# concentration at 379 days after surgery (median), trough listing for each entry below
Experiment: Dose-adjusted steady-state trough serum concentrations before and after low-calorie diet and bariatric surgery
Type: in vivo, human
Conditions: human, in vivo
Procedure: We designed the study as a naturalistic longitudinal, prospective case series with intra-individual comparisons of drug concentrations over time, before and up to 1 year after the surgical procedure. The participants contributed blood samples to the current study during routine pre-surgery visits before, and post-surgery visits about 8 weeks, 6 months, and 1 year after, the surgery. […] The samples were stored as serum in −80 °C at a biobank, and analysed after all samples had been collected. […]
OBSERVED_PROPERTY: concentration at 379 days after surgery (median), trough

* CN[C@H]1CC[C@@H](c2ccc(Cl)c(Cl)c2)c2ccccc21 | 25 nM
* CNCC[C@H](Oc1cccc2ccccc12)c1cccs1 | 82 nM
* CNCCC(Oc1ccc(C(F)(F)F)cc1)c1ccccc1 (stereo not shown) | 294 nM
* CN1CCN2c3ncccc3Cc3ccccc3C2C1 (stereo not shown) | 88 nM

====

# Dose-adjusted drug concentration Median (IQR), post-diet listing for each entry below
Test: Dose-adjusted steady-state trough serum concentrations before and after low-calorie diet and bariatric surgery
Assay type: in vivo, human
Details: human, in vivo
OBSERVED_PROPERTY: Dose-adjusted drug concentration Median (IQR), post-diet

* CNCC[C@H](Oc1cccc2ccccc12)c1cccs1 | 105 (64–235) nmol/L
* CN[C@H]1CC[C@@H](c2ccc(Cl)c(Cl)c2)c2ccccc21 | 39 (23–53) nmol/L
* Fc1ccc([C@@H]2CCNC[C@H]2COc2ccc3c(c2)OCO3)cc1 | 69 (N/A) nmol/L
* OCCOCCN1CCN(C2=Nc3ccccc3Sc3ccccc32)CC1 | 260 (N/A) nmol/L
* CNCCC(Oc1ccc(C(F)(F)F)cc1)c1ccccc1 (stereo not shown) | 263 (182–333) nmol/L
* CN1CCN2c3ncccc3Cc3ccccc3C2C1 (stereo not shown) | 76 (50–102) nmol/L
* CN1CCN2c3ccccc3Cc3ccccc3C2C1 (stereo not shown) | 201 (N/A) nmol/L

====

Test: Dose-adjusted steady-state trough serum concentrations before and after low-calorie diet and bariatric surgery
Format: in vivo, human
Conditions: Table 2A; antiepileptics; trough serum, adjusted for dose in DDDs
# Dose-adjusted drug concentration Median (IQR), Pre-diet/pre-surgery listing for each entry below
OBSERVED_PROPERTY: Dose-adjusted drug concentration Median (IQR), Pre-diet/pre-surgery

- CC1(C)O[C@@H]2[C@@H](CO[C@@]3(COS(N)(=O)=O)OC(C)(C)O[C@@H]23)O1 [Topiramate]: 33 (N/A) µmol/L
- CC(C)C[C@H](CN)CC(=O)O: 8.5 (5.8–16) µmol/L
- NCC1(CC(=O)O)CCCCC1: 34 (N/A) µmol/L
- CCCC(CCC)C(=O)O: 533 (N/A) µmol/L
- Nc1nnc(-c2cccc(Cl)c2Cl)c(N)n1: 17 (15–23) µmol/L

====

Experiment: Dose-adjusted steady-state trough serum concentrations before and after low-calorie diet and bariatric surgery
Type: in vivo, human
Settings: human, in vivo
Description: We designed the study as a naturalistic longitudinal, prospective case series with intra-individual comparisons of drug concentrations over time, before and up to 1 year after the surgical procedure. The participants contributed blood samples to the current study during routine pre-surgery visits before, and post-surgery visits about 8 weeks, 6 months, and 1 year after, the surgery. […] The samples were stored as serum in −80 °C at a biobank, and analysed after all samples had been collected. […]
# Dose-adjusted drug concentration Median (IQR), Pre-diet/pre-surgery listing for each entry below
OBSERVED_PROPERTY: Dose-adjusted drug concentration Median (IQR), Pre-diet/pre-surgery

* Cc1cc2c(s1)Nc1ccccc1N=C2N1CCN(C)CC1 | 113 (N/A) nmol/L
* CNCC[C@H](Oc1cccc2ccccc12)c1cccs1 | 127 (96–203) nmol/L
* OCCOCCN1CCN(C2=Nc3ccccc3Sc3ccccc32)CC1 | 848 (N/A) nmol/L
* CNCCC(Oc1ccc(C(F)(F)F)cc1)c1ccccc1 (centres unmarked) | 221 (157–371) nmol/L
* CN[C@H]1CC[C@@H](c2ccc(Cl)c(Cl)c2)c2ccccc21 | 51 (27–84) nmol/L

====

Assay: Dose-adjusted steady-state trough serum concentrations before and after low-calorie diet and bariatric surgery
Type: in vivo, human
Conditions: human, in vivo
OBSERVED_PROPERTY: Dose-adjusted drug concentration Median (IQR), Pre-diet/pre-surgery

* CN1CCN2c3ncccc3Cc3ccccc3C2C1 (stereo not drawn) | 148 (131–170) nmol/L
* Fc1ccc([C@@H]2CCNC[C@H]2COc2ccc3c(c2)OCO3)cc1 | 22 (N/A) nmol/L
* CN1CCN2c3ccccc3Cc3ccccc3C2C1 (stereo not drawn) | 255 (N/A) nmol/L

====

Assay: Dose-adjusted steady-state trough serum concentrations before and after low-calorie diet and bariatric surgery
Assay type: in vivo, human
Conditions: after the pre-surgery diet, before surgery; median weight reduction 6 kg
OBSERVED_PROPERTY: Change in dose-adjusted concentration over the pre-surgery low-calorie diet

* Nc1nnc(-c2cccc(Cl)c2Cl)c(N)n1 | increased
* CN1CCN2c3ncccc3Cc3ccccc3C2C1 (stereo not shown) | decreased
* CC(C)C[C@H](CN)CC(=O)O | increased
* OCCOCCN1CCN(C2=Nc3ccccc3Sc3ccccc32)CC1 | decreased
* NCC1(CC(=O)O)CCCCC1 | increased
* CN[C@H]1CC[C@@H](c2ccc(Cl)c(Cl)c2)c2ccccc21 | decreased

====

Experiment: Dose-adjusted steady-state trough serum concentrations before and after low-calorie diet and bariatric surgery
Assay type: in vivo, human
Conditions: human, in vivo; Table 2A; antiepileptics; trough serum, adjusted for dose in DDDs; last observation carried forward, median 379 days after surgery; read-out: Dose-adjusted drug concentration Median (IQR), Post-surgery
OBSERVED_PROPERTY: concentration at 379 days after surgery (median), trough

* CC(C)C[C@H](CN)CC(=O)O [Pregabalin] | 13 µM

====

Test: Dose-adjusted steady-state trough serum concentrations before and after low-calorie diet and bariatric surgery
Format: in vivo, human
Details: post-surgery versus pre-surgery; substances with samples from six or more participants
OBSERVED_PROPERTY: Reduction of dose-adjusted concentration on the last day of sampling

- CN1CCN2c3ncccc3Cc3ccccc3C2C1 (stereo not shown): 41%
- CNCC[C@H](Oc1cccc2ccccc12)c1cccs1: 35%
- CN(C)CCCC1(c2ccc(F)cc2)OCc2cc(C#N)ccc21 (stereo not shown): 19%
- CN[C@H]1CC[C@@H](c2ccc(Cl)c(Cl)c2)c2ccccc21: 51%

====

Assay: Dose-adjusted steady-state trough serum concentrations before and after low-calorie diet and bariatric surgery
Type: in vivo, human
Settings: human, in vivo
OBSERVED_PROPERTY: Dose-adjusted drug concentration Median (IQR), pre-diet

- Fc1ccc([C@@H]2CCNC[C@H]2COc2ccc3c(c2)OCO3)cc1: 22 (N/A) nmol/L
- CN1CCN2c3ncccc3Cc3ccccc3C2C1 (stereo not shown): 138 (120–157) nmol/L
- CNCC[C@H](Oc1cccc2ccccc12)c1cccs1: 127 (96–203) nmol/L
- OCCOCCN1CCN(C2=Nc3ccccc3Sc3ccccc32)CC1: 848 (N/A) nmol/L
- CN1CCN2c3ccccc3Cc3ccccc3C2C1 (stereo not shown): 255 (N/A) nmol/L
- CN[C@H]1CC[C@@H](c2ccc(Cl)c(Cl)c2)c2ccccc21: 66 (43–87) nmol/L
- CNCCC(Oc1ccc(C(F)(F)F)cc1)c1ccccc1 (stereo not shown): 259 (147–379) nmol/L
